Target: α-syn fibrils (Homo sapiens, UniProt P37840)
Construct: made in house; host or cells: Escherichia coli BL21(DE3)
Assay: Inhibition of thioflavin T binding to α-syn fibrils (fluorescence competition), Ki determination
Description: Wild-type α-syn and Aβ1-42 were expressed in the Escherichia coli strain BL21(DE3) (Stratagene, La Jolla, CA, USA) and purified as described. […] For the Aβ1-42 peptide, the concentration was determined by a fluorometric method using the reactive compound fluorescamine (Sigma, San Jose, CA, USA) that reacts with primary amino groups to form a fluorescent product. […]
pKi: −log10 of the molar value.
pKi for assorted compounds

Solved entries:
// output pKi; input Cc1ccc(C#Cc2cc3ccccc3[nH]2)cc1 [Compound 32] ; system α-syn fibrils (Homo sapiens, UniProt P37840) < 7.00

// output pKi; input CN(C)c1ccc(C#Cc2cc3cc(OCCF)ccc3[nH]2)cc1 [Compound 40] ; system α-syn fibrils (Homo sapiens, UniProt P37840) < 7.00

// output pKi; input C(#Cc1cc2ccccc2[nH]1)c1ccccc1 [Compound 31] ; system α-syn fibrils (Homo sapiens, UniProt P37840) < 7.00

Turning now to a further compound:
// output pKi; input Nc1cccc(C#Cc2cc3ccccc3[nH]2)c1 [Compound 36] ; system α-syn fibrils (Homo sapiens, UniProt P37840) < 7.00
